*1 amine or outer side, *2 acyl side, *3 side chain or, on linkers, in order; H or OH if unused. Where a SMILES comes first, the peptide text is derived from it. Bridges are numbered along the chain shown (N, C = ends). [ ]: non-standard residue; d: D form. X4 = C#CCCCCN1C(=O)C([*:1])=C([*:2])C1=O; X3 = NC(=O)/C(=C(\C(=O)O)[*:2])[*:1]; NMeR = CN[C@@H](CCCNC(=N)N)C(=O)O; X1 = n1nc([*:2])nnc1[*:1]; Nle = CCCC[C@H](N)C(=O)O
// values below are pKi; system is Melanocortin receptor 4 (Homo sapiens, UniProt P32245)
Sequence (P32245 whole entry): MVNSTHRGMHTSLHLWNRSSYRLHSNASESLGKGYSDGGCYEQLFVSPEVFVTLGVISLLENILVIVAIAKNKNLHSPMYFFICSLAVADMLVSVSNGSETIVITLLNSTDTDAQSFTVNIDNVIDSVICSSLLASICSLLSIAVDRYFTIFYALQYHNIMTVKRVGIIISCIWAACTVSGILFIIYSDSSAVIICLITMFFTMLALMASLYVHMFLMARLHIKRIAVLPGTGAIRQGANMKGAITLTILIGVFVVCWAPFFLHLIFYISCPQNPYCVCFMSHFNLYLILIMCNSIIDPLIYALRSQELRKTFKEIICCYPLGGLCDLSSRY
The scale used: pKi is minus the common logarithm of the concentration in molar units.

Sample answers from the record:
# Molecule, pKi
data = [
    ("CC[C@H](C)[C@@H]1NC(=O)[C@@H]2CCCN2C(=O)[C@H](Cc2c[nH]c3ccccc23)NC(=O)[C@H](CCCNC(=N)N)N(C)C(=O)[C@H](Cc2ccccc2)NC(=O)[C@H](Cc2cnc[nH]2)NC(=O)[C@H]([C@@H](C)O)NC(=O)[C@@H](NC(C)=O)CSSC[C@@H](C(N)=O)NC1=O (Ac-CTHF[NMeR]WPIC-NH2; disulfide 1-9)", 6.46),
    ("CCCC[C@@H]1NC(=O)[C@@H]2CS/C(C(=O)O)=C(/C(N)=O)SC[C@H](NC(=O)[C@H](CCCNC(=N)N)NC(=O)[C@H](CC(=O)O)NC(=O)[C@H](Cc3c[nH]c4ccccc34)NC(=O)[C@H](CCCNC(=N)N)NC(=O)[C@H](Cc3ccccc3)NC(=O)[C@H](Cc3cnc[nH]3)NC(=O)CNC1=O)C(=O)N[C@@H](Cc1cnc[nH]1)C(=O)N[C@@H](Cc1ccccc1)C(=O)N[C@@H](CCCNC(=N)N)C(=O)N[C@@H](Cc1c[nH]c3ccccc13)C(=O)N[C@@H](CCCNC(=N)N)C(=O)N2 (cyclo(CHFRWRC[Nle]GHFRWDR); linker 1-7 via X3)", 6.52),
    ("CCCC[C@@H]1NC(=O)[C@@H]2CSc3nnc(nn3)SC[C@H](NC(=O)[C@H](CCCNC(=N)N)NC(=O)[C@H](CC(=O)O)NC(=O)[C@H](Cc3c[nH]c4ccccc34)NC(=O)[C@H](CCCNC(=N)N)NC(=O)[C@H](Cc3ccccc3)NC(=O)[C@H](Cc3cnc[nH]3)NC(=O)CNC1=O)C(=O)N[C@@H](Cc1cnc[nH]1)C(=O)N[C@@H](Cc1ccccc1)C(=O)N[C@@H](CCCNC(=N)N)C(=O)N[C@@H](Cc1c[nH]c3ccccc13)C(=O)N[C@@H](CCCNC(=N)N)C(=O)N2 (cyclo(CHFRWRC[Nle]GHFRWDR); linker 1-7 via X1)", 7.47),
]

Here's the next entry for you.
Considering C#CCCCCN1C(=O)C2=C(SC[C@@H]3NC(=O)[C@H](CCCNC(=N)N)NC(=O)[C@H](CC(=O)O)NC(=O)[C@H](Cc4c[nH]c5ccccc45)NC(=O)[C@H](CCCNC(=N)N)NC(=O)[C@H](Cc4ccccc4)NC(=O)[C@H](Cc4cnc[nH]4)NC(=O)CNC(=O)[C@H](CCCC)NC(=O)[C@H](CS2)NC(=O)[C@H](CCCNC(=N)N)NC(=O)[C@H](Cc2c[nH]c4ccccc24)NC(=O)[C@H](CCCNC(=N)N)NC(=O)[C@H](Cc2ccccc2)NC(=O)[C@H](Cc2cnc[nH]2)NC3=O)C1=O (cyclo(CHFRWRC[Nle]GHFRWDR); linker 1-7 via X4) , its pKi with Melanocortin receptor 4 (Homo sapiens, UniProt P32245) was recorded as 7.21

Each recorded value in this set is attributed to ChEMBL document CHEMBL5104192.
